Ref: patent US7678918B2

System: TNF
Assay: Cytokine Induction in Human Cells: tumor necrosis factor (TNF) secreted by PBMCs, ELISA; note: call rule not given here
Type: cell-based
Conditions: Dose Concentration 1.0 μM, 18 to 24 hours
ASSAY ENDPOINT: TNF induction

Study these solved cases before continuing.
[
  {
    "SMILES STR": "CCCCc1nc2c(N)nc3cccnc3c2n1CCCCNC(=O)OCC",
    "TARGET SYSTEM": "TNF",
    "TNF induction": "+"
  },
  {
    "SMILES STR": "CCCCc1nc2c(N)nc3cccnc3c2n1CCNC(=O)CC(C)(C)C",
    "TARGET SYSTEM": "TNF",
    "TNF induction": "−"
  },
  {
    "SMILES STR": "CCCCc1nc2c(N)nc3cccnc3c2n1CCNC(=O)CC1CCCC1",
    "TARGET SYSTEM": "TNF",
    "TNF induction": "−"
  },
  {
    "SMILES STR": "CCCCc1nc2c(N)nc3cccnc3c2n1CCOc1ccccc1",
    "TARGET SYSTEM": "TNF",
    "TNF induction": "+"
  }
]

Q: Return TNF induction for the following molecule: CCCCc1nc2c(N)nc3cccnc3c2n1CCNC(=O)Cc1ccc(OC)cc1
Result: −

Q: Consider the molecule CCCCc1nc2c(N)nc3cccnc3c2n1CCNC(=O)CCCc1ccc([N+](=O)[O-])cc1 . State its measured TNF induction.
Result: +

Q: Please look at this molecule and report its TNF induction: CCCCc1nc2c(N)nc3cccnc3c2n1CCNC(=O)Cn1cc(C)c(=O)[nH]c1=O
Result: −
